These measurements were taken from ChEMBL document CHEMBL5226307.

target: Dual specificity calcium/calmodulin-dependent 3',5'-cyclic nucleotide phosphodiesterase 1C (Homo sapiens); assay: Inhibition of human PDE1C
Sequence (Q14123 whole entry): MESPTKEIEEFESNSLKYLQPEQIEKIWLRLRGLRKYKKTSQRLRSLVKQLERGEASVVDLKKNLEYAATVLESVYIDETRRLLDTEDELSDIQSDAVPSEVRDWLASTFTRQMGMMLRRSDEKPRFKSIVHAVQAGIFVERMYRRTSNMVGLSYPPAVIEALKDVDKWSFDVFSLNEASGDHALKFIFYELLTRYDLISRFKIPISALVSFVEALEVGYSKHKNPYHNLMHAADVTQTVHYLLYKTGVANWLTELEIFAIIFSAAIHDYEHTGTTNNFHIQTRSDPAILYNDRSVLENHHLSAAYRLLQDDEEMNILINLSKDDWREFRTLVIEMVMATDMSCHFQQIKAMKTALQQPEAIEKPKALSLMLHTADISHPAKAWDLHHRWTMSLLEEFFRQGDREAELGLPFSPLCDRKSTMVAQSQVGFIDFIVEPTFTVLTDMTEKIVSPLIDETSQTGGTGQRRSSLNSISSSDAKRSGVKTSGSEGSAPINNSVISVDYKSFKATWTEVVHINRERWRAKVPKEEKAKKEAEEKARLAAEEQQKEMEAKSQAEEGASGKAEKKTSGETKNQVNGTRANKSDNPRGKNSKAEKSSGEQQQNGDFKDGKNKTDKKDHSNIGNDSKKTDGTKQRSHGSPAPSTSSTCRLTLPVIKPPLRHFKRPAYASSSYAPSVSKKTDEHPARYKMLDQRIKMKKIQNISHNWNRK
pIC50: −log10 of the molar value.
MEASURE: pIC50

[
  {
    "STRUCTURE SMILES STRING": "Cc1ccc([N+](=O)[O-])cc1S(=O)(=O)N(C)C",
    "READING": 4.21
  }
]

---

molecular target: cGMP-specific 3',5'-cyclic phosphodiesterase (Homo sapiens); assay: Inhibition of human PDE5
MEASURE: IC50 (µM)

[
  {
    "STRUCTURE SMILES STRING": "Cc1ccc([N+](=O)[O-])cc1S(=O)(=O)N(C)C",
    "MEASURE": "IC50",
    "READING": 62
  }
]
